Target: Metabotropic glutamate receptor 5 (Rattus norvegicus)
Assay: Antagonist activity at rat mGluR5 expressed in human HEK293A cells assessed as inhibition of glutamate-induced calcium flux
Type: functional, cell-based, HEK293-A
Endpoint: IC50 (nM)
Reply with just the number (in nM).

O=C(Nc1cccc(Cl)c1)c1cccc(N2C(=O)c3ccccc3C2=O)c1: 1780
O=C(Nc1ccccc1F)c1cccc(N2C(=O)c3ccccc3C2=O)c1: 1050

In the following, a different molecule is considered.
Name the recorded IC50 of COc1ccccc1C(=O)Nc1cccc(NC(=O)c2cccc(C)c2)c1 , assay system Metabotropic glutamate receptor 5 (Rattus norvegicus). 1350

---

Molecular target: Metabotropic glutamate receptor 5 (Rattus norvegicus, UniProt P31424)
Sequence (P31424 whole entry): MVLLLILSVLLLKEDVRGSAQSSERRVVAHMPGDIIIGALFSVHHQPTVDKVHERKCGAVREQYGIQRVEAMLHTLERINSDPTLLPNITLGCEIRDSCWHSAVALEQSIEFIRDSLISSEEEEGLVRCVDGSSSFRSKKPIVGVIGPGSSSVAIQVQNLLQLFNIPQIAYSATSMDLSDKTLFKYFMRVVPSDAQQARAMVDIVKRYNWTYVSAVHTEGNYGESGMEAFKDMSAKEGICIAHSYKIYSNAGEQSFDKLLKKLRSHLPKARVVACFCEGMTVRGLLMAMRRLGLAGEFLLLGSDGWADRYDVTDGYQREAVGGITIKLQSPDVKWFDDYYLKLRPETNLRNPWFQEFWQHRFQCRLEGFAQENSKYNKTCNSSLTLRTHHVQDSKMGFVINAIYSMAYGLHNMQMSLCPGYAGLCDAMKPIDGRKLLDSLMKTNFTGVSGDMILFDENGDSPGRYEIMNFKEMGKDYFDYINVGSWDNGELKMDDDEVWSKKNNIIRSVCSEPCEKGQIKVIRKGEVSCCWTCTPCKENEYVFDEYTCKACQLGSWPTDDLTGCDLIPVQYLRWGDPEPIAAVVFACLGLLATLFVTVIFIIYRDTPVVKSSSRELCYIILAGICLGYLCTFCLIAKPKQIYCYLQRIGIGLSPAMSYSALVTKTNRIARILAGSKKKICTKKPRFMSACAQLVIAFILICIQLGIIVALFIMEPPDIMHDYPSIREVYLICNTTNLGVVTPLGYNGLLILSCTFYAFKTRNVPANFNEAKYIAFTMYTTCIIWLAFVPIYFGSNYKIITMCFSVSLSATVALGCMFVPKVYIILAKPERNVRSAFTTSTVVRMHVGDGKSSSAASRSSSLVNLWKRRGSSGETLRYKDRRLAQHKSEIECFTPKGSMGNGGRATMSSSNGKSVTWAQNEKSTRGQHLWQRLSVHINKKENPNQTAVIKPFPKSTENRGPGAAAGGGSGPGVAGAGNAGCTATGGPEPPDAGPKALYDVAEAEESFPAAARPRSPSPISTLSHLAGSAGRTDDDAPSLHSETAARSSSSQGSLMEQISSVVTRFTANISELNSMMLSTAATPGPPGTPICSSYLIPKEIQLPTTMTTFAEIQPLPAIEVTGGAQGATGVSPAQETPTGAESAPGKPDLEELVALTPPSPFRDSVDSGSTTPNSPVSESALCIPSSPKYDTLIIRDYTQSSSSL
Assay: Antagonist activity at rat mGluR5 expressed in human HEK293A cells assessed as inhibition of glutamate-induced calcium flux
pIC50: −log10 of the molar value.
Reported pIC50 values for a set of compounds

Example entries and their recorded answers appear below.
COCC(=O)Nc1cccc(NC(=O)c2ccccc2OC)c1: < 4.52
CC(C)C(=O)Nc1cccc(NC(=O)c2cccc(Cl)c2)c1: 5.24
COc1cc(NC(=O)c2cccc(N3C(=O)c4ccccc4C3=O)c2)cc(OC)c1: 5.45

Supply recorded pIC50 for COc1ccccc1NC(=O)c1cccc(N2C(=O)c3ccccc3C2=O)c1 here. < 4.52

Supply recorded pIC50 for COc1ccccc1C(=O)Nc1cccc(NC(=O)c2ccco2)c1 here. < 4.52

Supply recorded pIC50 for COc1ccccc1C(=O)Nc1cccc(NC(=O)C2CCC2)c1 here. < 4.52

Supply recorded pIC50 for O=C(Nc1cccc(NC(=O)c2ccco2)c1)c1cccc(Cl)c1 here. 5.35
